Each entry below lists one item and its recorded pEC50 value.
Biological target: T1, recombinant human soluble gpNMB (recombinant human gpNMB-FLAG-His) (human, UniProt Q14956 23-498)
T1 sequence: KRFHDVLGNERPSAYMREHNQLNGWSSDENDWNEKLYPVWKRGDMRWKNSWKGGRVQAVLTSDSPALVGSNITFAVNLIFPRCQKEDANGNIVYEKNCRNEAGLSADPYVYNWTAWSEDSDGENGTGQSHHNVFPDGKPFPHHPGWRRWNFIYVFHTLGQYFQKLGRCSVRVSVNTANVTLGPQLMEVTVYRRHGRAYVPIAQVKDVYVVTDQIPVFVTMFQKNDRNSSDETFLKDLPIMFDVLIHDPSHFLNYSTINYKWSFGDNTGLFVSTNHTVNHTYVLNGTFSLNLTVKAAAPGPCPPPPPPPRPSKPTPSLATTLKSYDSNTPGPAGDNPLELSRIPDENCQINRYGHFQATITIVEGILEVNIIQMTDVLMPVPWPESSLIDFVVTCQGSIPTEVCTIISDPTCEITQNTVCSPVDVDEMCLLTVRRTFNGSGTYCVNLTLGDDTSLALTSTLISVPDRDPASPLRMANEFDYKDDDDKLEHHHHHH
Experiment: antigen ELISA
pEC50: −log10 of the molar value.

{"Binder": "hGPN06-1_H1L1 VL M32A (antibody, V domains shown) VH: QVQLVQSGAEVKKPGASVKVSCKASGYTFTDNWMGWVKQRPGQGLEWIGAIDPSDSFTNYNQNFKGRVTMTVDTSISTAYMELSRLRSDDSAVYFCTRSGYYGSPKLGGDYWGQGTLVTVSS VL: EIVLTQSPSSLSASVGDRVTITCSASSSISYAHWYQQKSGTAPKLLIYSTSNLASGVPSRFSGSGSGTDFTFTISSLQPEDAATYYCHQWNSYPCTFGGGTKLEIK", "pEC50": 8.19}
{"Binder": "hGPN06-1_H1L1 (antibody, V domains shown, humanized; also called humanized anti-gpNMB antibody H1L1) VH: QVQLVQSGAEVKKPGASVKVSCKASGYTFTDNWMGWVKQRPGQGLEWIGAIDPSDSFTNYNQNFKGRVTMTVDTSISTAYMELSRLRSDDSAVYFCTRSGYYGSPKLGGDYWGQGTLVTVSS VL: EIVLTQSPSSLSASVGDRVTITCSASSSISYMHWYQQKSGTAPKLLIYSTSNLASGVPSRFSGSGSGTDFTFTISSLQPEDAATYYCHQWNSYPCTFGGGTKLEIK", "pEC50": 8.70}
{"Binder": "hGPN06-1_H1L1 VL W90A (antibody, V domains shown) VH: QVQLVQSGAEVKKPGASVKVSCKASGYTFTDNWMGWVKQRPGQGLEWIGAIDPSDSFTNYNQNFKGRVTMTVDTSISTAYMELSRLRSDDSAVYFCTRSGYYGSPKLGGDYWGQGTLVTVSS VL: EIVLTQSPSSLSASVGDRVTITCSASSSISYMHWYQQKSGTAPKLLIYSTSNLASGVPSRFSGSGSGTDFTFTISSLQPEDAATYYCHQANSYPCTFGGGTKLEIK", "pEC50": 6.91}
{"Binder": "hGPN06-1_H1L1 VL H88A (antibody, V domains shown) VH: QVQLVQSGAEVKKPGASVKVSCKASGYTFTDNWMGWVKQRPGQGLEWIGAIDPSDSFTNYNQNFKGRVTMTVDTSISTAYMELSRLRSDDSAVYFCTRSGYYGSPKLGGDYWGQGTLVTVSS VL: EIVLTQSPSSLSASVGDRVTITCSASSSISYMHWYQQKSGTAPKLLIYSTSNLASGVPSRFSGSGSGTDFTFTISSLQPEDAATYYCAQWNSYPCTFGGGTKLEIK", "pEC50": 6.83}
{"Binder": "hGPN06-1_H1L1 VL S30A (antibody, V domains shown) VH: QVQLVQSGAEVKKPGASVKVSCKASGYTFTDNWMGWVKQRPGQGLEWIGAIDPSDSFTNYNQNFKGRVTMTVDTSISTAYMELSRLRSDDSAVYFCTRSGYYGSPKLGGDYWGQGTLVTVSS VL: EIVLTQSPSSLSASVGDRVTITCSASSSIAYMHWYQQKSGTAPKLLIYSTSNLASGVPSRFSGSGSGTDFTFTISSLQPEDAATYYCHQWNSYPCTFGGGTKLEIK", "pEC50": 8.06}
